For reference, the following pKi results for Adenosine receptor A1 (Homo sapiens, UniProt P30542) were taken from various sources.
Reminder that pKi is minus the log10 of a molar concentration.

These recorded examples may help you get a feel for the data.
>>> value_observed("CCCn1c(=O)c2[nH]c(-c3ccccc3)cc2n(CCC)c1=O")
7.47
>>> value_observed("CCN(C(C)=O)c1ccc(OC)c2nc(NC(=O)c3ccc(C(=O)NC)cc3)sc12")
6.73
>>> value_observed("Cn1c(=O)c2c(nc3n2CCN(CCc2ccc(Cl)cc2C(F)(F)F)C3)n(C)c1=O")
6.26
>>> value_observed("OC[C@H]1CCCN1c1nc(-c2nccs2)c2sccc2n1")
6.60

Please report the recorded pKi for Nc1ncnc2c1nc(Br)n2Cc1ccccc1 .
5.17

###

Compiled literature pKi, tested on Adenosine receptor A1 (Homo sapiens).
Target: Adenosine receptor A1 (Homo sapiens)
Sequence (P30542 whole entry): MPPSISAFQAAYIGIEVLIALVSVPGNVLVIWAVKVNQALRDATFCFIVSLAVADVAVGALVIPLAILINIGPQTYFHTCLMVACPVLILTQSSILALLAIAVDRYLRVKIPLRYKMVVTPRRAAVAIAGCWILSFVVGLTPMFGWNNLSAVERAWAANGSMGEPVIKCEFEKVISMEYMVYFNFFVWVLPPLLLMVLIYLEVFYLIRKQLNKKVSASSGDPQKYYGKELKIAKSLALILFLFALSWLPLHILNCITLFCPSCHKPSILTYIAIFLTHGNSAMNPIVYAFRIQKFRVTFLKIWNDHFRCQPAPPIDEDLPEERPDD
pKi: −log10 of the molar value.
Lab note: anything with pKi at or over 6 counts as T; the rest go in F.

>>> category_label("CCn1c(=O)c2c(nc3ccccn32)n(Cc2ccccc2)c1=O")
"T"
>>> category_label("O=c1[nH]c2nc(-c3cnn(Cc4ccccc4)c3)[nH]c2c(=O)n1CC1CC1")
"F"
>>> category_label("O=C(Nc1nc2ccccc2s1)c1cc2ccccc2s1")
"F"
>>> category_label("O[C@@H]1[C@H](O)[C@@H]2C[C@@H]2[C@H]1n1cnc2c(N[C@H]3C[C@@H]3c3ccccc3)nc(Cl)nc21")
"F"
>>> category_label("CCCC(=O)Nc1nc(-c2ccccc2)nc(-c2ccccc2)c1C#N")
"T"
>>> category_label("Nc1nc(C(=O)NCc2cccc3ccccc23)c2cccc(F)c2n1")
"T"

Tell me whether pKi is at least 6 here: CC(Oc1ccc(-c2cc3c([nH]2)c(=O)n(C)c(=O)n3C)cc1)C(=O)Nc1ccccc1 (stereo not given)
T

Lookup CCC(=O)Nc1cc(-c2cccs2)nc(-c2cccs2)n1
T

###

Before we begin, note that these pKi values for the protein given by its sequence originate from several publications.
Target protein (sequence): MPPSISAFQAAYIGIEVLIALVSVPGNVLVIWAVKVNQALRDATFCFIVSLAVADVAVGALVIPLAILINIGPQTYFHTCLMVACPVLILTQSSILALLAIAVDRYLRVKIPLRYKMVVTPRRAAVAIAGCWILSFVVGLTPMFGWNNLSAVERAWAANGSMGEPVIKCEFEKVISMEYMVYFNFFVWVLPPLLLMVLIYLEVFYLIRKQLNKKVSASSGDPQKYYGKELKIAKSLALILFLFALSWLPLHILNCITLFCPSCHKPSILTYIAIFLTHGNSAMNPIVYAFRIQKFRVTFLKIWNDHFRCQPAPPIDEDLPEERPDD
pKi: −log10 of the molar value.
Lab note: compare pKi against 7. Equal or greater, write criterion met. Smaller, write criterion not met.

>>> category_label("CCCC(=O)Nc1nc(-c2cccs2)cc(-c2cccs2)n1")
"criterion not met"
>>> category_label("CCCC(=O)Nc1nc(-c2ccccc2)c(C#N)c(-c2ccc3c(c2)OCO3)n1")
"criterion met"

Reported pKi reaches at least 7 for CC1=C(C(=O)OCC(C)C)C(c2ccoc2)NC(=O)N1 (racemic) ?
criterion not met

How about this compound: CCCn1c(=O)c2nc(-c3ccc(OCc4nc(-c5cccc(OC)c5)no4)cc3)[nH]c2n(CCC)c1=O
criterion not met

###

Molecular target: Adenosine receptor A1 (Homo sapiens)
Sequence (P30542 whole entry): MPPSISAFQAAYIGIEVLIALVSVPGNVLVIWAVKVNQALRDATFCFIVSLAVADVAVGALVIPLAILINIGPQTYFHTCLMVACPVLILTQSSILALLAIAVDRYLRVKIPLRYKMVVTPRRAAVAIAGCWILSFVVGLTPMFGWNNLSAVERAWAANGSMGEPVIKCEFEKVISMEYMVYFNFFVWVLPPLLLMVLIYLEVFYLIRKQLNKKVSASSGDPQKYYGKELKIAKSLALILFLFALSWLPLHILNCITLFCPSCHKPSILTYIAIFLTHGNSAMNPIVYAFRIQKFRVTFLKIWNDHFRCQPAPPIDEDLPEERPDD
Compiled notes: published Ki values involving Adenosine receptor A1 (Homo sapiens).
Consider the cut-off 40 nM. If the recorded Ki is strictly smaller, the label is Condition met; if not, the label is Condition not met.

Field: example entries. Status: answers known.
>>> category_label("COc1ccc(CCCc2nc(N)c3nn(-c4ccccc4)cc3n2)cc1")
"Condition met"
>>> category_label("CCC(=O)Nc1cc(N2CCC[C@@H]2COC)nc(-n2nc(C)cc2C)n1")
"Condition not met"
>>> category_label("CCCCCCC(C)Nc1nc2nn(C)cc2c2nc(-c3ccco3)nn12 (configuration not stated)")
"Condition not met"
>>> category_label("CC(=O)Nc1nc(-c2ccccc2)c(-c2nc(C)no2)s1")
"Condition not met"
>>> category_label("C=CCn1c(=O)c2c(nc3ccccn32)n(Cc2ccccc2)c1=O")
"Condition not met"

Dear reviewer, please state whether CCN(C(C)=O)c1ccc(OC)c2nc(NC(=O)c3cc[nH]c3)sc12 has Ki strictly beneath 40 nM.
Condition met

Further, for Cc1ccc(CNC(=O)N2CCC(NC(=O)Nc3nc4nn(C)cc4c4nc(-c5ccco5)nn34)CC2)cc1 ?
Condition not met

###

Target protein (sequence): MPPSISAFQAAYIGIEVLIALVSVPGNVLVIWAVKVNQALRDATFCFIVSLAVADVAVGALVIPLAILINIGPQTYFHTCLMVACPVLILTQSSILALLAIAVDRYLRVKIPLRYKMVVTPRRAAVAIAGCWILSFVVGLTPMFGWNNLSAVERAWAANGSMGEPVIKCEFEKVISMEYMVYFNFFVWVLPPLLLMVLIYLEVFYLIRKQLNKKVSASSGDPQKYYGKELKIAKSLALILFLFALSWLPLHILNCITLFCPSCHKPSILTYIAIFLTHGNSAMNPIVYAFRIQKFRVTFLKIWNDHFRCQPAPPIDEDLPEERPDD
Assembled from different publications: log10(Ki) for the protein given by its sequence.
Please interpret these as log10 of Ki where Ki is in nM.

>>> value_observed("CCCn1c(=O)c2c(nc3cc(OC)ccn32)n(Cc2ccccc2)c1=O")
2.25
>>> value_observed("CN1CCN(c2nc(-c3cccc(O)c3)nc3[nH]cnc23)CC1")
2.20

Find the measured log10(Ki): item CCn1nnc(-c2sc(NC(=O)C3CC3)nc2-c2ccccc2)n1 , target or system the protein given by its sequence.
2.32

Try this compound too: Cn1cc2c(nc(NCCOc3ccccc3)n3nc(-c4ccco4)nc23)n1
2.81

Now the compound COCCN(C(C)=O)c1ccc(OC)c2nc(NC(=O)c3ccc(F)cc3)sc12
2.04

Can you handle Nc1nc(/C=C/c2ccccc2)nc2cn(-c3ccccc3)nc12 next?
2.68

Queued: Cn1cc2c(nc(NC(=O)NC3CCN(C(=O)NC4CCCCCC4)CC3)n3nc(-c4ccco4)nc23)n1
2.91

Next entry: CCNC(=O)[C@H]1O[C@@H](n2cnc3c(N)nc(NCCc4ccc(CCC(=O)Nc5ccc(O)c([N+](=O)[O-])c5)cc4)nc32)[C@H](O)[C@@H]1O
3.28

Quick one: Oc1ccc(-c2nc(N3CCCCC3)c3nc[nH]c3n2)cc1
1.00

###

The following molecules were reported with Ki values on Adenosine receptor A1 (Homo sapiens, UniProt P30542) in different studies.
Target: Adenosine receptor A1 (Homo sapiens, UniProt P30542)
Sequence (P30542 whole entry): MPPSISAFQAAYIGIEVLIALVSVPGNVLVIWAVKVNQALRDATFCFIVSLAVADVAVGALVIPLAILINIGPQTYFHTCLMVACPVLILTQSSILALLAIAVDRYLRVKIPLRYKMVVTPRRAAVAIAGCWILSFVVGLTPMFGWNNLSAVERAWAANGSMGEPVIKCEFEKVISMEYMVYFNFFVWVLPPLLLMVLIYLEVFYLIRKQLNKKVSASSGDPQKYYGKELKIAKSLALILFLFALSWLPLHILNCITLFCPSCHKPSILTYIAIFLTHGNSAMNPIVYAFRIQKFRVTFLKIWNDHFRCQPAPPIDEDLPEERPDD
For each record, check the reported Ki: if it is below 2000 nM write TRUE, else write FALSE.

The following molecules have reported results that may help.
>>> category_label("O=c1c(-c2ccccc2)nnc2n(-c3ccccc3)c3ccccc3n12")
"TRUE"
>>> category_label("CCCCn1c(=O)[nH]c2nc(-c3cnn(Cc4cccc(F)c4)c3)[nH]c2c1=O")
"FALSE"
>>> category_label("Nc1ncnc2c1ncn2CCCO")
"FALSE"
>>> category_label("Cn1cc2c(nc(NCc3ccc(C(F)(F)F)cc3)n3nc(-c4ccco4)nc23)n1")
"TRUE"

Please determine if CN(C)c1ccc(-c2nc(SCc3csc(-c4ccc(Cl)cc4)n3)nc(N)c2C#N)cc1 is below 2000 nM in terms of Ki.
TRUE

Param item: Nc1nc(-c2ccc(OCCCl)cc2)cn2c(=O)n(-c3ccccc3)nc12
FALSE
